assay: Maximum solubility in 2% BSA Krebs-Henseleit buffer (pH 7.4); format: physicochemical; details: 25 1° C.
readoutName: Maximum solubility (mM)
Lab book: enter the figure in mM, no units written.

Q) Please give the measured Maximum solubility for this molecule: CC(=O)Oc1ccc(-c2ccc(F)cc2F)cc1C(=O)O
A) 7.57

----------
assay: In vitro non-enzymatic hydrolysis in Krebs-Henseleit buffer; type: physicochemical; details: protein-free Krebs-Henseleit buffer, pH 7.4; Krebs-Henseleit buffer 0% BSA; first half life; t1/2=0.693/k; U = Undetectable; read-out: Half life (t1/2) (converted)
Below is a list of entries, each paired with its recorded half-life value.
Number plus unit, in that order.

structureNotation | half-life
CCCCCCCC(=O)Oc1ccccc1C(=O)O | 136 h
CCCCCCC(=O)Oc1ccccc1C(=O)O | 133 h

Q) If you can, please state the reported half-life value of CCCCCC(=O)Oc1ccccc1C(=O)O .
A) 117 h

Q) Item CCCCC(=O)Oc1ccccc1C(=O)O has what recorded half-life?
A) 114 h

Q) Give the measured half-life of CCCC(=O)Oc1ccccc1C(=O)O .
A) 141 h

----------
system: in-situ perfused rat liver; assay: In-situ rat liver perfusion bolus studies, moments and dispersion model analysis (Example 3); type: in vitro ADME, Sprague-Dawley rats; conditions: moments analysis, bolus, n = 3, Mean S.E.; 2% BSA perfusate, 30 mL/min
Think of 8 s as a floor: if MTT (mean transit time) stands on it or above, it is True; beneath it, False.

Study these solved cases before continuing.
molecule | labelClass
CCCCCC(=O)Oc1ccc(-c2ccc(F)cc2F)cc1C(=O)O | False
CCCC(=O)Oc1ccc(-c2ccc(F)cc2F)cc1C(=O)O | False
CCCCC(=O)Oc1ccc(-c2ccc(F)cc2F)cc1C(=O)O | False
CC(=O)Oc1ccc(-c2ccc(F)cc2F)cc1C(=O)O | True

We now examine a further molecule.
Q) Has O=C(O)c1cc(-c2ccc(F)cc2F)ccc1O [DF, reference compound] a recorded MTT (mean transit time) greater than or equal to 8 s?
A) False

----------
test system: in-situ perfused rat liver; assay: In-situ rat liver perfusion bolus studies, moments and dispersion model analysis (Example 3); type: in vitro ADME, Sprague-Dawley rats; settings: determined using equation 5 & 6; n = 3, Mean S.E.
Documented RN (efficiency number) across a set of molecules
Answer field: number only, no words.

Below, 3 molecules whose answers are already recorded.
structureNotation | RN (efficiency number)
CCCCC(=O)Oc1ccc(-c2ccc(F)cc2F)cc1C(=O)O | 1.32
CCCC(=O)Oc1ccc(-c2ccc(F)cc2F)cc1C(=O)O | 1.56
CC(=O)Oc1ccc(-c2ccc(F)cc2F)cc1C(=O)O | 2.58

Turning now to a further record.
Q) Any idea what RN (efficiency number) was measured for CCCCCC(=O)Oc1ccc(-c2ccc(F)cc2F)cc1C(=O)O ?
A) 1.32

----------
assay: In vitro non-enzymatic hydrolysis in Krebs-Henseleit buffer; assay type: physicochemical; details: Krebs-Henseleit buffer 0% BSA, pH 7.4, 25° C.; n=5; U = Undetectable
readoutName: Hydrolysis rate constant (k)
The number alone won't do; follow it with the unit.

Q) Which Hydrolysis rate constant (k) value belongs to CCCCC(=O)Oc1ccccc1C(=O)O ?
A) 0.0061 ± 0.0027 hour^1

Q) Using the record for CCC(=O)Oc1ccccc1C(=O)O , report its Hydrolysis rate constant (k).
A) 0.0147 ± 0.0025 hour^1

Q) Endpoint output: Hydrolysis rate constant (k) of CCCC(=O)Oc1ccccc1C(=O)O . Value?
A) 0.0049 ± 0.0037 hour^1

----------
List of Hepatic extraction values.
system: in-situ perfused rat liver; assay: In-situ rat liver perfusions, hepatic extraction (Example 4); type: in vitro ADME; settings: protein-free Krebs-Henseleit buffer as perfusate; hepatic extraction=1- hepatic availability (F)
# output: bare number, no unit

compound | Hepatic extraction
CCCCC(=O)Oc1ccccc1C(=O)O [Compound C5SA, n-pentanoylsalicylic acid] | 0.74
CCCCCC(=O)Oc1ccccc1C(=O)O [Compound C6SA, n-hexanoylsalicylic acid] | 0.98

Pending compound:
Q) Could you share which Hepatic extraction value was measured for CCCC(=O)Oc1ccccc1C(=O)O [Compound C4SA, n-butanoylsalicylic acid] ?
A) 0.60

----------
Recorded Hydrolysis rate constant (k) for the following molecules
assay: In vitro non-enzymatic hydrolysis in Krebs-Henseleit buffer; assay type: physicochemical; conditions: Krebs-Henseleit buffer 2% BSA, pH 7.4, 25° C.; n=5
Number in hour^1, nothing else.

Worked set:
structureNotation | unitInfo | Hydrolysis rate constant (k)
CCCC(=O)Oc1ccc(-c2ccc(F)cc2F)cc1C(=O)O | hour^1 | 0.0138
CCC(=O)Oc1ccccc1C(=O)O | hour^1 | 0.0102
CCCCCC(=O)Oc1ccccc1C(=O)O | hour^1 | 0.0021
CCCC(=O)Oc1ccccc1C(=O)O | hour^1 | 0.0031
CCCCCCCC(=O)Oc1ccccc1C(=O)O | hour^1 | 0.0010

Q) Suppose we examine the molecule CCCCCCC(=O)Oc1ccccc1C(=O)O ; what Hydrolysis rate constant (k) value has been reported?
A) 0.0013

Q) Any idea what Hydrolysis rate constant (k) was measured for CCCCC(=O)Oc1ccccc1C(=O)O ?
A) 0.0028

Q) Param item = CCCCCC(=O)Oc1ccc(-c2ccc(F)cc2F)cc1C(=O)O ; retrieve measured Hydrolysis rate constant (k).
A) 0.0056

Q) Tell me the measured Hydrolysis rate constant (k) of CCCCC(=O)Oc1ccc(-c2ccc(F)cc2F)cc1C(=O)O , please.
A) 0.0113

Q) Request the reported Hydrolysis rate constant (k) associated with CC(=O)Oc1ccc(-c2ccc(F)cc2F)cc1C(=O)O
A) 0.0238

----------
test system: human platelet rich plasma; assay: Platelet aggregation induced by arachidonic acid; type: cell-based; conditions: preincubation 12 minutes; compound 600 µM, 37° C.; arachidonic acid 200 µM
Each entry below carries its recorded Platelet Aggregation (% of control).

compound | Platelet Aggregation (% of control)
CCC(=O)Oc1ccc(-c2ccc(F)cc2F)cc1C(=O)O [Compound C3D, n-propionyldiflunisal] | 19.3 ± 0.5 % of control
CCCC(=O)Oc1ccc(-c2ccc(F)cc2F)cc1C(=O)O [Compound C4D, n-butanoyldiflunisal] | 31.8 ± 0.4 % of control

Here is another compound to look at.
Q) What value of measured Platelet Aggregation (% of control) is listed for CCCCCCCC(=O)Oc1ccccc1C(=O)O [Compound C8SA, n-octanoylsalicylic acid] ?
A) 27.3 ± 0.2 % of control

----------
target: BSA (bovine serum albumin) (Bos taurus, UniProt P02769); construct: BSA (bovine serum albumin, fraction V, Sigma); purchased Sigma; host or cells: bovine serum (fraction V); test: Protein binding by ultrafiltration in 2% BSA Krebs buffer; assay type: in vitro ADME; settings: 2% BSA Krebs-Henseleit buffer pH 7.4, 37° C.; slope of Scatchard plot
Sequence (P02769 25-607): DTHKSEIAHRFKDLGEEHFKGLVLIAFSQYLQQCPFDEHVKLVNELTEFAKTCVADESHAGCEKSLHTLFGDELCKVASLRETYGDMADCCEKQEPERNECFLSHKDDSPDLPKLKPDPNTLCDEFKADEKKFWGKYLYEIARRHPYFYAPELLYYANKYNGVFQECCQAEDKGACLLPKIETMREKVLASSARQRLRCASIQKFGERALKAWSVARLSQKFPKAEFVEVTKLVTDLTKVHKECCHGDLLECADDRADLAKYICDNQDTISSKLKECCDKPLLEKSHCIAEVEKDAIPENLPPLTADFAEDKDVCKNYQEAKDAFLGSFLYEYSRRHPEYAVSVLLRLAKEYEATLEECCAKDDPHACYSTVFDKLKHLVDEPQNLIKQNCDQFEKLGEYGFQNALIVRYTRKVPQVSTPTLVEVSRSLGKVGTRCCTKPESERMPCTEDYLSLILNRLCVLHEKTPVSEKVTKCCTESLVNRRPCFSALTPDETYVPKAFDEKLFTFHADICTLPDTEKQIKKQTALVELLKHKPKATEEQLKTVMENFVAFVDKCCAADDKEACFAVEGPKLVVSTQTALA
readoutName: Protein binding constant (K) (L/mol)
# unit: L/mol | format: bare number

structureNotation | experimentalSystem | unitInfo | testResult
CCCCCCCC(=O)Oc1ccccc1C(=O)O | BSA (bovine serum albumin) (Bos taurus, UniProt P02769) | L/mol | 13978

Q) Field request: Protein binding constant (K) | item: CCCCCC(=O)Oc1ccccc1C(=O)O
A) 2071

Q) Item CC(=O)Oc1ccc(-c2ccc(F)cc2F)cc1C(=O)O has what recorded Protein binding constant (K)?
A) 2077

Q) Would you mind telling me what Protein binding constant (K) value was observed for CCCC(=O)Oc1ccc(-c2ccc(F)cc2F)cc1C(=O)O ?
A) 2365

Q) Reported Protein binding constant (K) for CCCCCC(=O)Oc1ccc(-c2ccc(F)cc2F)cc1C(=O)O : what is it?
A) 2995

Q) Given the entry CCCCC(=O)Oc1ccc(-c2ccc(F)cc2F)cc1C(=O)O , report its measured Protein binding constant (K).
A) 2707

Q) # Protein binding constant (K) lookup, item CCCCC(=O)Oc1ccccc1C(=O)O
A) 1525

----------
Property: Platelet Aggregation (% of control); scope: individual molecules
test system: human platelet rich plasma; experiment: Platelet aggregation induced by arachidonic acid; format: cell-based; settings: preincubation 5 minutes; compound 600 µM, 37° C.; arachidonic acid 200 µM

molecule | Platelet Aggregation (% of control)
CCC(=O)Oc1ccccc1C(=O)O [Compound C3SA, n-propionylsalicylic acid] | 0 % of control
CCCCCCC(=O)Oc1ccc(-c2ccc(F)cc2F)cc1C(=O)O [Compound C7D, n-heptanoyldiflunisal] | 96.3 ± 1.1 % of control

Let us examine a further case.
Q) Quick check: Platelet Aggregation (% of control) of CCCC(=O)Oc1ccc(-c2ccc(F)cc2F)cc1C(=O)O [Compound C4D, n-butanoyldiflunisal] ?
A) 90.3 ± 2.1 % of control

----------
Each entry below carries its recorded Maximum solubility.
assay: Maximum solubility in 2% BSA Krebs-Henseleit buffer (pH 7.4); format: physicochemical; settings: 25 1° C., mean standard deviation (n=3)
Give the value in µg/mL but do not write µg/mL after it.

structureNotation | readoutName | testResult
CCCC(=O)Oc1ccc(-c2ccc(F)cc2F)cc1C(=O)O | Maximum solubility | 3960
CCCCCC(=O)Oc1ccc(-c2ccc(F)cc2F)cc1C(=O)O | Maximum solubility | 15580
CC(=O)Oc1ccc(-c2ccc(F)cc2F)cc1C(=O)O | Maximum solubility | 2200
CCC(=O)Oc1ccc(-c2ccc(F)cc2F)cc1C(=O)O | Maximum solubility | 3150

Below: the item to evaluate.
Q) Field request: Maximum solubility | item: CCCCC(=O)Oc1ccc(-c2ccc(F)cc2F)cc1C(=O)O
A) 6980
